- assay-name: qHTS assay to identify small molecule antagonists of the thyroid receptor (TR) signaling pathway - cell viability counter screen (AID 743064); note: nearly all actives have a fitted effect of over 50% in size
- particulars: GH3.TRE-Luc viability, CellTiter-Fluor, 24 h; series mostly up to 70.3 µM
Inconclusive results are not listed. Calls of active or inactive are those of the source. Calls come from the whole dose curve; as a rule, active = well fitted cell-killing curve with a large enough effect in the repeat runs; inconclusive = weak or mixed curves, or effect the other way; inactive = no such curve, though single readings can be large or run the other way.
Returns: one label drawn from active, inactive

Use these answered entries as a reference point.
Recorded test call requested for Nc1cc(Cl)c([N+](=O)[O-])cc1O active

# fetch the recorded call for CCNc1nc(NC(C)CC)nc(OC)n1 (stereo unspecified) here inactive

New cases:
Any idea what this test logged for CCN(CC)CCNc1ccc(CO)c2sc3ccccc3c(=O)c12 ? active

Could you please tell me the result logged for C(=C/c1ccccc1)/c1ccccc1 in this assay? inactive

Recorded call for O=C(O)CCCCCCC(=O)O ? inactive

Hi, sorry to bother you, what did the test record for Oc1ccc(-c2ccc(O)cc2)cc1 ? inactive

Entry Clc1ccc(C(Cn2ccnc2)OCc2ccsc2Cl)c(Cl)c1 (stereo unspecified) : call = ? active

// return assay outcome for CC(=O)Oc1ccc(C2(c3ccc(OC(C)=O)cc3)C(=O)Nc3ccccc32)cc1 inactive

Which outcome did this test record for the compound CN1CCN(C2Cc3ccccc3Sc3ccc(Cl)cc32)CC1 (stereo unspecified) ? active

Hi team, can someone confirm the assay call for CCOC(=O)[C@@](C)(N)Cc1ccc(O)c(O)c1 ? inactive

For this compound, state the assay outcome: CN1[C@@H]2CC[C@@H]1CC(OC(=O)C(CO)c1ccccc1)C2 (stereo partly specified) inactive

###

- study-target: Estrogen receptor (Homo sapiens) (UniProt P03372)
- Sequence (P03372 whole entry, looked up): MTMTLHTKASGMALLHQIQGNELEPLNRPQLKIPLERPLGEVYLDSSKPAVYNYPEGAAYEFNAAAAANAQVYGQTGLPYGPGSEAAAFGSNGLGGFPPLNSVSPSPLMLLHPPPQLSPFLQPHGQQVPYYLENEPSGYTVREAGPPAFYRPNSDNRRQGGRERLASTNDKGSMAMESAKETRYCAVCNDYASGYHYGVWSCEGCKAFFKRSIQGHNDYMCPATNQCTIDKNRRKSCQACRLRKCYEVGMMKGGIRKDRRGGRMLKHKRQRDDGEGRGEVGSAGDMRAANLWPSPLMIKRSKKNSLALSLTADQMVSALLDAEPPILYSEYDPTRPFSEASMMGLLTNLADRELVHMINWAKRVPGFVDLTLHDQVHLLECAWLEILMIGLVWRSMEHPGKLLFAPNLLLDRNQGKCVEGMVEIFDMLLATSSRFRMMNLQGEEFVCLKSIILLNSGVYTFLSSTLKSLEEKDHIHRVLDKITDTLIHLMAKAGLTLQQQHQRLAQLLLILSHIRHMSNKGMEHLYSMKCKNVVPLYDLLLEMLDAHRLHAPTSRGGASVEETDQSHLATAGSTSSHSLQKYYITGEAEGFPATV
- assay-name: qHTS assay to identify small molecule antagonists of the estrogen receptor alpha (ER-alpha) signaling pathway (AID 743069)
- particulars: HEK293 ER-alpha-UAS-bla, beta-lactamase ratio, antagonist mode; series mostly up to 69.4 µM
Calls of active or inactive are those of the source. Calls follow the shape of the dose curve; as a rule, active = well fitted curve in the direction sought with a large enough effect in the signal ratio in the repeat runs (not every such curve was filed as active); inconclusive = weak or mixed curves, or effect the other way; inactive = no such curve, though single readings can be large or run the other way; the % refers to the signal ratio.
Permitted responses: active, inactive

Look over these answered cases.
Hi, do you know how COC(=O)CC(C)CCC=C(C)C (configuration not stated) came out in this test? inactive

What was the test verdict on CC(=O)Oc1ccc(C2(c3ccc(OC(C)=O)cc3)Oc3ccccc3NC2=O)cc1 ? active

Each molecule tested received a call. Report the one for COc1ccccc1OCCNCC(O)COc1cccc2[nH]c3ccccc3c12 (configuration not stated) . inactive

What did this assay record as the result for CCCCN(CCCC)CCC(O)c1cc2c(Cl)cc(Cl)cc2c2cc(C(F)(F)F)ccc12 (configuration not stated) ? inactive

Field: outcome | Entry: NC(=O)c1ccccc1N inactive

---
Could you check what this test reported for C(=C/c1ccccc1)/c1ccccc1 ? inactive

Short answer needed: outcome of this test for C[Si](C)(C)Cl ? inactive

Hi, do you know how O=S(=O)(O)CCCN1CCOCC1 came out in this test? inactive

Which result was noted for this molecule in the test: CCCCNc1c(C(=O)OCC)c(C)nc2c1cnn2CC inactive

###

- assay-name: qHTS assay for identifying genotoxic compounds that show differential cytotoxicity against isogenic chicken DT40 cell lines with known DNA damage response pathways - Rad54/Ku70 mutant cell line (AID 743015); note: nearly all actives have a fitted effect of over 60% in size
- particulars: DT40 Rad54/Ku70 mutant viability, CellTiter-Glo, 40 h; series mostly up to 66.8 µM
Results filed as inconclusive are left out. Activity calls are given as the source filed them. Calls follow the shape of the dose curve; as a rule, active = well fitted cell-killing curve with a large enough effect in the repeat runs; inconclusive = weak or mixed curves; inactive = no such curve, though single readings can be large or run the other way.
Hi there, use one of these labels in your reply, thanks! active, inactive

Solved cases (3 shown):
Returns: the outcome recorded for Cc1ccc2ccc3cccc4ccc1c2c34 in this assay. inactive

I'd appreciate the recorded outcome for C=CCCCCCCC=C from this test. inactive

Dear all, I need the recorded test outcome for Oc1ccc(-c2ccc(O)cc2)cc1 , thank you. active

Others:
What classification did CCCCCCCCCCCCCC[n+]1ccccc1 end up with in this test? active

Hey, what did the test say about O=C1NCN(c2ccccc2)C12CCN(CCCC(c1ccc(F)cc1)c1ccc(F)cc1)CC2 ? active

// param item: NC(=O)c1nc(-c2cccc(-c3cc(F)ccc3OCC(F)(F)C(F)(F)F)c2)n[nH]1 ; yields the recorded call active

What did the test return for COCC(=O)O[C@]1(CCN(C)CCCc2nc3ccccc3[nH]2)CCc2cc(F)ccc2[C@@H]1C(C)C ? active

Kindly provide the recorded test outcome for the following compound: O=C(NO)c1ccccc1 active

For CC(O)C#CC(C)O (stereo unspecified) , what call appears in the results of this test? active

Provenance of the data: PubChem BioAssay (Tox21)
